tested on: T. cruzi intracellular amastigotes in H9c2 cells; experiment: Rate-of-Kill (RoK) high-content imaging assay, amastigotes per cell (AM/CELL) and curve descriptors; type: cell-based, Trypanosoma cruzi; parameters: key: % reduction in parasite burden (cidal response); conditions: 72h, figure 5
property: ME_72h
Numbers only.

Observe how each entry below is paired with its result.
>>> numeric_readout("Cc1nccn1C1CCCN(C(=O)c2cc3c(F)cccc3s2)C1 (centres unmarked)")
68.2465
>>> numeric_readout("CCn1nccc1CN(C)C(=O)C=Cc1ccc(Cl)cc1")
23.6762
>>> numeric_readout("O=c1[nH]cnc2c([C@@H]3O[C@H](CO)[C@@H](O)[C@H]3O)n[nH]c12")
83.4402
>>> numeric_readout("COc1ccccc1-c1c(C)[nH]c2nc(N)nc(C)c12")
72.4769
>>> numeric_readout("CC(C)(C)C(Cn1ccnc1)NC(=O)c1ccc2nc(C3CC3)oc2c1 (centres unmarked)")
-53.9696
>>> numeric_readout("CS(=O)(=O)c1cccc(CNC(=O)c2cncc(N3CCN(c4ccc(F)cc4)CC3)c2)c1.O=C(O)C(F)(F)F.O=C(O)C(F)(F)F.O=C(O)C(F)(F)F")
58.9567
>>> numeric_readout("O=C(CSc1ccc(-c2ccccn2)nn1)Nc1ccc(Cl)cc1")
85.8726

// fetch ME_72h given entry O=C(NCC1CCCCC1)c1cc(=O)c2ccccc2o1 64.4668

* * *

system: T. cruzi intracellular amastigotes in H9c2 cells; experiment: Rate-of-Kill (RoK) high-content imaging assay, amastigotes per cell (AM/CELL) and curve descriptors; format: cell-based, Trypanosoma cruzi; details: Time 48; sheet figure 4 A
I'd appreciate it if you marked entries 1 when AM/CELL NORM is lower than 60 and -1 when it is not.

Solved cases (3 shown):
>>> class_assignment("O=c1[nH]cnc2c([C@@H]3O[C@H](CO)[C@@H](O)[C@H]3O)n[nH]c12 [TCMDC-143083, Formycin B]")
-1
>>> class_assignment("Cc1c(C(=O)NCCCCn2ccnc2)oc2c(C)cccc12 [TCMDC-143304]")
1
>>> class_assignment("Cc1[nH]c2ccccc2c(=O)c1Cc1c(C)[nH]c2ccccc2c1=O [TCMDC-143490]")
1

Regarding COc1ccc(S(=O)(=O)NCc2ccc(-c3ccc(CN(C)CCO)cc3)cc2)cc1.O=C(O)C(F)(F)F [TCMDC-143549] , kindly confirm whether its AM/CELL NORM is beneath 60. 1

Regarding Cc1cc(N(C)C)nc(Nc2ccccc2C)n1 [TCMDC-143109] , kindly confirm whether its AM/CELL NORM is beneath 60. -1

Regarding CN(C)Cc1ccc(-c2ccc(S(=O)(=O)NCC3CCCO3)c(F)c2)cc1.O=C(O)C(F)(F)F (centres unmarked) [TCMDC-143085] , kindly confirm whether its AM/CELL NORM is beneath 60. 1

Regarding COc1ccc2ncc(=O)n(CCN3CCOC(CNCc4ccc(C(F)(F)F)cc4F)C3)c2n1 (centres unmarked) [TCMDC-143384] , kindly confirm whether its AM/CELL NORM is beneath 60. 1

* * *

I'd be grateful if you could share measured 48 pIC50 for these entries.
system: T. cruzi Tulahuen trypomastigotes; assay: T. cruzi trypomastigote assay (Cell Titer-Glo viability, ATP luminescence); assay type: cell-based, Trypanosoma cruzi; conditions: trypomastigote assay, 48 h; figure 1A

Observe how each entry below is paired with its result.
>>> result("O=C(NCc1ccncc1)c1ccccc1N1CCCN(C(=O)Cc2ccc(F)c(F)c2)CC1.O=C(O)C(F)(F)F.O=C(O)C(F)(F)F")
"< 4.3"
>>> result("CC(C)N(C(=O)CN1C(=O)C(N)C(=O)N(c2ccccc2)c2ccccc21)c1ccccc1 (stereo not shown)")
"< 4.3"
>>> result("CC(C)Nc1nccc(-c2c(-c3ccc(F)cc3)ncn2C2CCOCC2)n1")
"< 4.3"
>>> result("N#Cc1ccc(S(=O)(=O)N2CCC3(CCN(c4ccccc4)C3=O)CC2)cc1")
"< 4.3"
>>> result("CCN(C)Cc1ccc(N2CCC(NS(=O)(=O)c3ccc4c(c3)CCO4)CC2)nc1")
"< 4.3"
>>> result("Cc1ccc(S(=O)(=O)Cn2nnnc2C(c2cccnc2)N2CCN(c3ccccc3)CC2)cc1 (stereo not shown)")
"< 4.3"

Can you give me 48 pIC50 for all of these, one by one?
1. O=C(N1CCc2ccccc2CC1)C1(C(=O)N2CCC(n3c(=O)[nH]c4ncccc43)CC2)CC1.O=C(O)C(F)(F)F
2. O=C(Nc1ccc(Br)cn1)c1ccc(Cn2cnc([N+](=O)[O-])n2)cc1
3. O=C(c1cnn(-c2ccccc2)n1)N1CCCC(n2ccnc2)C1 (stereo not shown)
4. O=S(=O)(c1ccccc1C(F)(F)F)N1CCN(Cc2ccc(-n3ccnc3)cc2)CC1
5. COc1ccc2nccc([C@H](O)CN3CC[C@H](NC(=O)c4ccc(Br)cc4)[C@@H](O)C3)c2n1
6. O=C(NCC1CCCCC1)c1cc(=O)c2ccccc2o1
7. O=C(NC1C(=O)N(c2ccccc2)C1c1cccnc1)c1ccc(Cl)s1 (stereo not shown)
8. C=CCOCC1Cn2nc([N+](=O)[O-])nc2O1 (stereo not shown)

< 4.3
6.1
< 4.3
< 4.3
< 4.3
5
< 4.3
< 4.3

* * *

system: T. cruzi intracellular amastigotes in H9c2 cells; experiment: Rate-of-Kill (RoK) high-content imaging assay, amastigotes per cell (AM/CELL) and curve descriptors; type: cell-based, Trypanosoma cruzi; conditions: maximum effect at 72 h, RoK assay
Class field: derived from ME_72h (%); ranges low interval: < 50%; middle interval: ≥ 50% and < 70%; high interval: ≥ 70%

Which bin should I file Cc1nnnn1-c1cccc(C(=O)N2CCC[C@@]3(C)c4ncncc4CCC23)c1 (stereo partly drawn) [TCMDC-143148] under? high interval

Which bin should I file Clc1ccc(Sc2cnccc2N2CCOCC2)cc1 [TCMDC-143602] under? low interval

* * *

System: T. cruzi intracellular amastigotes in H9c2 cells
Assay: Rate-of-Kill (RoK) high-content imaging assay, amastigotes per cell (AM/CELL) and curve descriptors
Type: cell-based, Trypanosoma cruzi
Details: Time 4; sheet figure 4 A
Procedure: For this high-content intracellular imaging assay, H9c2 cells were seeded in 225 cm^2 T- FLASK in DMEM with 10% FBS for 4 h to allow attachment. […] Trypomastigotes were then collected and counted in a CASY Cell Counter using the 60 μm capillary. […] Cells were counted in a CASY Cell Counter, using the 150 μm capillary, and their density set at 5 x 10^4 cells/mL in supplemented DMEM. […] Then plates were read in a PerkinElmer Opera Phenix using a 20x objective, 3 fields per well. […]
property: AM/CELL NORM

Observe how each entry below is paired with its result.
>>> result("COc1ccc(S(=O)(=O)NCc2ccc(-c3ccc(CN(C)CCO)cc3)cc2)cc1.O=C(O)C(F)(F)F")
-7.714
>>> result("COc1ccc(NS(=O)(=O)c2cc(NC(=O)c3ccc([N+](=O)[O-])s3)ccc2OC)cc1")
10.6053

Can you give me AM/CELL NORM for all of these, one by one?
1. O=C(Nc1ccc(Br)c(Cl)c1)Nc1ccc2c(c1)OCO2
2. Cc1ccc(C)c(OC2CCN(C(=O)C(C)n3ccnc3)CC2)c1 (centres unmarked)
3. COc1ccc(-c2nc3ncccc3o2)cc1NC(=O)c1cccs1
4. Cc1c(C(C)NC(=O)Nc2cccc(Cl)c2)sc2ncnn12 (centres unmarked)

1. 16.6619
2. -1.4032
3. -5.518
4. -4.394

Can you give me AM/CELL NORM for all of these, one by one?
1. Cc1c(C(=O)NCCCCn2ccnc2)oc2c(C)cccc12
2. Cc1cccnc1CN1CCN(CCCOc2ccc(-c3ccc(C(N)=O)cc3)cc2)CC1
3. CC(C)Oc1cccc(N2CCC(C(=O)N3CCCN(C(C)C)CC3)CC2)c1.Cl
4. CC(C)N(C(=O)CN1C(=O)C(N)C(=O)N(c2ccccc2)c2ccccc21)c1ccccc1 (centres unmarked)
5. CC(C)Nc1nccc(-c2c(-c3ccc(F)cc3)ncn2C2CCOCC2)n1
6. Cc1nn(C)c(Cl)c1CN(Cc1cccnc1)Cc1ccsc1
7. O=C(N1CCc2ccccc2CC1)C1(C(=O)N2CCC(n3c(=O)[nH]c4ncccc43)CC2)CC1.O=C(O)C(F)(F)F

1: -4.678; 2: 9.834; 3: -8.446; 4: -6.592; 5: -6.859; 6: -6.323; 7: 8.613

Can you give me AM/CELL NORM for all of these, one by one?
1. O=S(=O)(c1cccc(CSc2nnc(-c3ccc4c(c3)OCO4)o2)c1)N1CCOCC1
2. COc1ccc(C(C)N(C)c2ncc3c(N)nc(N)nc3n2)cc1F (centres unmarked)
3. O=C1CSC(c2cccnc2)N1c1ccc(Cl)cc1Cl (centres unmarked)

[-18.4264, 12.1557, 4.621]

Recall the reported AM/CELL NORM of O=C(NCc1ccncc1)c1ccccc1N1CCCN(C(=O)Cc2ccc(F)c(F)c2)CC1.O=C(O)C(F)(F)F.O=C(O)C(F)(F)F when tested on T. cruzi intracellular amastigotes in H9c2 cells. -9.816

# credit: paper PMC8318231
